Biological target: T1, nSR100 (Mus musculus, UniProt Q8BKA3)
T1 construct: host or cells: mouse N2A cells
T1 sequence (Q8BKA3 1-608): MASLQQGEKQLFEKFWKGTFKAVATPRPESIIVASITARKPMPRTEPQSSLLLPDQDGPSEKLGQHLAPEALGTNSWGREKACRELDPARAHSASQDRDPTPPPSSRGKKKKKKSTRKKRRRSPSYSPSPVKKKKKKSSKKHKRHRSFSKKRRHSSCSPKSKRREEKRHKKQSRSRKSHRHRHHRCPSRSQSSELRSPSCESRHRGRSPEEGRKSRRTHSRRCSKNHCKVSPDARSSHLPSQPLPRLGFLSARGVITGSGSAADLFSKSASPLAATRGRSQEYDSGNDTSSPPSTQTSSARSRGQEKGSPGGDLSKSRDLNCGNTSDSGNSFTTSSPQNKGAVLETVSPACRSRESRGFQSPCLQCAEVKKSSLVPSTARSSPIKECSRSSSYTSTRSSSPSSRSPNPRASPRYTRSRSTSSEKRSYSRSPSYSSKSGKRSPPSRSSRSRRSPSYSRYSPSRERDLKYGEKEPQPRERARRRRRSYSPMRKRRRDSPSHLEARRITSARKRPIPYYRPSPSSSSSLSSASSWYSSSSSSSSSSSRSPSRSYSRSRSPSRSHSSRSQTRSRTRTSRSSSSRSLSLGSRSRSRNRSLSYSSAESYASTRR
Assay: AP-MS nSR100 interaction partners from mouse N2A cells (Table 5)
Format: binding
Conditions: bait Srrm4, biological replicate 1 (first number of the cell), AP-MS
reportedEndpoint: Spectra (number of spectra for the prey in the purification of the bait)
Answers are plain numbers.

Csnk2a2 (protein, UniProt O54833 1-350, looked up) Casein kinase II subunit …: MPGPAAGSRARVYAEVNSLRSREYWDYEAHVPSWGNQDDYQLVRKLGRGKYSEVFEAINITNNERVVVKILKPVKKKKIKREVKILENLRGGTNIIKLIDTVKDPVSKTPALVFEYINNTDFKQLYQILTDFDIRFYMYELLKALDYCHSKGIMHRDVKPHNVMIDHQQKKLRLIDWGLAEFYHPAQEYNVRVASRYFKGPELLVDYQMYDYSLDMWSLGCMLASMIFRKEPFFHGQDNYDQLVRIAKVLGTDELYGYLKKYHIDLDPHFNDILGQHSRKRWENFIHSENRHLVSPEALDLLDKLLRYDHQQRLTAKEAMEHPYFYPVVKEQSQPCAENTVLSSGLTAAR    16

Alright, here's another molecule for you.
For the molecule Pgam5 (protein, UniProt Q8BX10 1-288, looked up) Serine/threonine-protein …: MAFRQALQLAACGLAGGSAAVLFSAVAVGKPRGGGDADTRATEPPAWTGARAGRGVWDTNWDRREPLSLINLKKRNVESGEDELTSRLDHYKAKATRHIFLIRHSQYHVDGSLEKDRTLTPLGREQAELTGLRLASLGLKFNKIVHSSMTRAVETTDIISKHLPGVSRVSTDLLREGAPIEPDPPVSHWKPEAVQYYEDGARIEAAFRNYIHRADARQEEDSYEIFICHANVIRYIVCRALQFPPEGWLRLSLNNGSITHLVIRPNGRVALRTLGDTGFMPPDKITRS , report Spectra (number of spectra for the prey in the purification of the bait).
20

Value source: patent US10772928B2
